# Tested on: UniProtKB P45983
# Measurement notes: In Vitro JNK1 Assay (TR-FRET, phosphorylation of GST-c-Jun)
# Assay type: biochemical
# Run conditions: 0.2 nM active JNK1 kinase, 26.7 nM GST-c-Jun, 2 μM ATP, 30 min at room temperature
pIC50: −log10 of the molar value.
Parameter measured: pIC50

>>> print(df.to_string())
                                   compound  test_result
0  CC(C)(C)OC(=O)N[C@H]1CC[C@@H](NC(=O)NCc2cn(-c3ccccc3)c3cc(Cl)ccc3c2=O)CC1         6.70
1  CC(C)(C)OC(=O)N1CCC(NC(=O)NCc2cn(-c3ccccc3)c3cc(Cl)ccc3c2=O)C1 (stereo not shown)         6.04

1: O=C(NCc1cn(-c2ccccc2)c2cc(Cl)ccc2c1=O)c1ccc(N2CCN(CCO)CC2)nc1
2: O=C(NCc1cn(-c2ccccc2)c2cc(Cl)ccc2c1=O)c1cc(F)cc(F)c1
3: NC(=O)c1ccc(C(=O)NCc2c(-c3ncco3)n(-c3ccccc3)c3cc(Cl)ccc3c2=O)cc1
4: CN(C)C(=O)c1c(CNC(=O)c2ccc(N3CCC(CO)CC3)nc2)c(=O)c2ccc(Cl)cc2n1-c1ccccc1
5: NC(=O)c1ccc(C(=O)NCc2cn(-c3ccccc3)c3cc(Cl)ccc3c2=O)cc1
Incoming: Please list these in order of increasing pIC50. Thank you! The labels, placed in the requested order, form the answer.
Outgoing: 2, 5, 4, 1, 3
(2: 6.20, 5: 6.52, 4: 6.85, 1: 7.09, 3: 7.85)

----------
# IC50 annotations
# Tested on: JNK1 (Homo sapiens (Human), UniProt P45983)
# Sequence (P45983 whole entry): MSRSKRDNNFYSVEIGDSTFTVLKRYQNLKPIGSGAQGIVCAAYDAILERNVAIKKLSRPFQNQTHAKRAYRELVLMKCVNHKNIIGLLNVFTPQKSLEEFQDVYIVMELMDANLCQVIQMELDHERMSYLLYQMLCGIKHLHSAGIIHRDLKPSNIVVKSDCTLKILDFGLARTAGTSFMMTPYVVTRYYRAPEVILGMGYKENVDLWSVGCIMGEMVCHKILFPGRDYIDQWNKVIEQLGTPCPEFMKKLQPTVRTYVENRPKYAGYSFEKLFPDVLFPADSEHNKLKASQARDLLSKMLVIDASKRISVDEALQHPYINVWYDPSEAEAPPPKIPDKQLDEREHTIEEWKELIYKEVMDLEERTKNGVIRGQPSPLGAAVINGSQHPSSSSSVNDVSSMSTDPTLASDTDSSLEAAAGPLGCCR
# Measurement notes: In Vitro JNK1 Assay (TR-FRET, phosphorylation of GST-c-Jun)
# Type: biochemical
# value in µM; strip the unit string

>>> df
                                   compound  parameter_measured  test_result
0  COC(=O)c1c(CNC(=O)Oc2ccccc2)c(=O)c2ccc(Cl)cc2n1-c1ccccc1 [Example I-210]                IC50          1.1

# context switch: different compound, same IC50
The reported value for O=C(NCc1cn(-c2ccccc2)c2cc(Cl)ccc2c1=O)NC1CCN(C(=O)Oc2ccccc2)CC1 [Example I-193] in terms of IC50 is 0.18

----------
# Tested on: JNK1 (Homo sapiens (Human), UniProt P45983)
# Measurement notes: In Vitro JNK1 Assay (TR-FRET, phosphorylation of GST-c-Jun)
# Assay type: biochemical
# Run conditions: 0.2 nM active JNK1 kinase, 26.7 nM GST-c-Jun, 2 μM ATP, 30 min at room temperature
pIC50: −log10 of the molar value.
Parameter measured: pIC50

Solved cases (2 shown):
>>> print(df.to_string())
                                   molecule  parameter_measured  test_result
0  COc1ccc(C(=O)NCc2cn(-c3ccccc3)c3cc(Cl)ccc3c2=O)cc1OC               pIC50         7.10
1  CC(C)(C)OC(=O)N1CC2CC1CN2c1ccc(C(=O)NCc2cn(-c3ccccc3)c3cc(Cl)ccc3c2=O)cn1 (stereo not drawn)               pIC50         7.96

a: O=C(NCc1cn(-c2ccccc2)c2cc(Cl)ccc2c1=O)c1ccc(-c2ncn[nH]2)cc1
b: CC(C)(C)OC(=O)N[C@H]1CC[C@H](NC(=O)NCc2cn(-c3ccccc3)c3cc(Cl)ccc3c2=O)CC1
Incoming: # argmax over pIC50 for candidates a and b Identify your pick by its label.
Outgoing: a
(a: 7.00, b: 6.15)

----------
# Tested on: JNK1 (Homo sapiens (Human))
# Measurement notes: In Vitro JNK1 Assay (TR-FRET, phosphorylation of GST-c-Jun)
# Format: biochemical
# Run conditions: 0.2 nM active JNK1 kinase, 26.7 nM GST-c-Jun, 2 μM ATP, 30 min at room temperature
Structures can show the parent of a compound that is named as a salt.
Parameter measured: IC50 (nM)

Solved cases (5 shown):
>>> print(df.to_string())
                                   compound  parameter_measured  unit_symbol  test_result
0  O=C(NCc1cn(-c2ccccc2)c2cc(Cl)ccc2c1=O)c1ccc(N(CCO)CCO)nc1                IC50           nM           18
1  O=c1c(CNc2ncnc3cc(F)ccc23)cn(-c2ccccc2)c2cc(Cl)ccc12                IC50           nM           79
2  COC(=O)c1c(CNC(=O)c2ccc(N3CCOCC3)nc2)c(=O)c2ccc(C(F)(F)F)nc2n1-c1ccccc1                IC50           nM           18
3  COC(=O)c1c(CNC(=O)c2cnn(Cc3ccccc3)c2)c(=O)c2ccc(Cl)cc2n1-c1ccccc1                IC50           nM           13
4  COC(=O)c1ccc(C(=O)NCc2c(-c3ncco3)n(-c3ccccc3)c3cc(Cl)ccc3c2=O)cn1                IC50           nM           25

P: O=C(NCc1cn(-c2ccccc2)c2cc(Cl)ccc2c1=O)c1cnn(-c2ccccc2)c1
Q: O=C(NCc1cn(-c2ccccc2)c2cc(Cl)ccc2c1=O)c1ccc(N2CCCCCC2)nc1
Incoming: Smaller IC50 value, P vs Q ? Identify your pick by its label.
Outgoing: Q

I: CN(C)C(=O)c1c(CNC(=O)c2cnn(C)c2)c(=O)c2ccc(Cl)cc2n1-c1ccccc1
II: CN(C)C(=O)c1c(CNC(=O)c2ccc(N3CCCCC3)nc2)c(=O)c2ccc(Cl)cc2n1-c1ccccc1 [Example I-28, trifluoroacetate salt]
Incoming: Smaller IC50 value, I vs II ? Identify your pick by its label.
Outgoing: II
(II: 91 nM, I: 780 nM)

I: O=C(NCc1cn(-c2ccccc2F)c2cc(F)ccc2c1=O)c1ccc(N2CCOCC2)nc1
II: O=C(NCc1cn(-c2ccccc2)c2cc(Cl)ccc2c1=O)c1ccnc(N2CCOCC2)c1
Incoming: # argmax over IC50 for candidates I and II Identify your pick by its label.
Outgoing: I

a: COC(=O)c1c(CNC(=O)N2CCOCC2)c(=O)c2ccc(Cl)cc2n1-c1ccccc1
b: COC(=O)c1c(CNC(=O)c2ccccn2)c(=O)c2ccc(Cl)cc2n1-c1ccccc1
Incoming: # argmax over IC50 for candidates a and b Identify your pick by its label.
Outgoing: a

----------
# System: phospho(Ser63)-c-jun in HK-2 cells
# Measurement notes: Cell-Based Assay for JNK Inhibitors (in-cell ELISA, phospho(Ser63)-c-jun after TNFα)
# Run conditions: HK-2 cells (human proximal tubule cells), 60 minutes compound, then 10 ng/mL TNFα for 30 minutes
Parameter measured: EC50 (µM)

Solved cases (8 shown):
In [3]: df
Out[3]:
                           substance_smiles  parameter_measured  test_result
0  NC(=O)c1ccc(C(=O)NCc2c(-c3ncco3)n(-c3ccccc3)c3cc(Cl)ccc3c2=O)cc1                EC50            3
1  COC(=O)c1c(CNC(=O)c2ccc3scnc3c2)c(=O)c2ccc(Cl)cc2n1-c1ccccc1                EC50            2
2  O=C(NCc1cn(-c2ccccc2)c2cc(Cl)ccc2c1=O)c1cnc(N2CCC(O)CC2)s1                EC50           14
3  COC(=O)c1c(CNC(=O)c2ccc(-c3ncc[nH]3)cc2)c(=O)c2ccc(C(F)(F)F)nc2n1-c1ccccc1                EC50          4.6
4  CN(C)c1cc(C(=O)NCc2cn(-c3ccccc3)c3cc(Cl)ccc3c2=O)ccn1                EC50           28
5  CN(C)C(=O)c1c(CNC(=O)c2cnc(N3CCOCC3)s2)c(=O)c2ccc(Cl)cc2n1-c1ccccc1                EC50           25
6  COc1ccc(C(=O)NCc2cn(-c3ccccc3)c3cc(Cl)ccc3c2=O)cn1                EC50          100
7  COC(=O)c1c(CNc2ncnc3ccccc23)c(=O)c2ccc(Cl)cc2n1-c1ccccc1                EC50          8.4

1: O=C(NCc1cn(-c2ccccc2)c2cc(Cl)ccc2c1=O)c1ccnc(N2CCOCC2)c1
2: COC(=O)c1c(CNC(=O)c2cnn(C)c2)c(=O)c2ccc(Cl)cc2n1-c1ccccc1
Incoming: Smaller EC50 value, 1 vs 2 ? Identify your pick by its label.
Outgoing: 2

P: COC(=O)c1c(CNC(=O)c2ccc(Cl)c(Cl)c2)c(=O)c2ccc(Cl)cc2n1-c1ccccc1
Q: O=C(NCc1cn(-c2ccccc2)c2cc(Cl)ccc2c1=O)c1ccn(Cc2ccccc2)c(=O)c1
R: O=C(NCc1cn(-c2ccccc2)c2cc(Cl)ccc2c1=O)c1ccc(N2CCCCC2)nc1
Incoming: Returns the items ordered by EC50, from maximum to minimum. The labels, placed in the requested order, form the answer.
Outgoing: R, P, Q

A: COC(=O)c1c(CNC(=O)c2ccc(-c3cnns3)cc2)c(=O)c2ccc(Cl)cc2n1-c1ccccc1
B: O=C(NCc1cn(-c2ccccc2)c2cc(Cl)ccc2c1=O)c1ccc(N2CCNCC2)nc1
Incoming: Smaller EC50 value, A vs B ? Identify your pick by its label.
Outgoing: A
